molecular target: human κ opioid receptors (Homo sapiens); assay: Opioid receptor function test (Lance Ultra cAMP kit, agonist activity); conditions: CHO cells expressing human κ opioid receptors, 10 μM forskolin, 30 minutes
Threshold 0.4 nM. EC50 below it: Fulfilled. EC50 at it or above: Not fulfilled.

Problem: For the compound CC1C[C@@]2(O)[C@H]3Cc4ccc(O)cc4[C@]2(CCN1C(=O)Cc1ccccn1)CCN3CC1CC1 (some centres unmarked) , is EC50 under 0.4 nM?
Fulfilled

Problem: For the compound O=C(Cn1cc(C(F)(F)F)cn1)N1CC[C@]23CCN(CC4CC4)[C@H](Cc4ccc(O)cc42)[C@]3(O)CC1 , is EC50 under 0.4 nM?
Fulfilled

Problem: For the compound CN(C)CCC(=O)N1CC[C@]23CCN(CC4CC4)[C@H](Cc4ccc(O)cc42)[C@]3(O)CC1 , is EC50 under 0.4 nM?
Not fulfilled

Problem: For the compound Cn1cnc(CCN2CC[C@]34CCN(CC5CC5)[C@H](Cc5ccc(O)cc53)[C@]4(O)CC2)c1 , is EC50 under 0.4 nM?
Fulfilled

Problem: For the compound Oc1ccc2c(c1)[C@@]13CCN(CCN4CCC(F)(F)C4)CC[C@@]1(O)[C@@H](C2)N(CC1CC1)CC3 , is EC50 under 0.4 nM?
Fulfilled

Problem: For the compound Cc1cc2c(cc1O)[C@@]13CCN(C(=O)Cc4ccccn4)CC[C@@]1(O)[C@@H](C2)N(CC1CC1)CC3 , is EC50 under 0.4 nM?
Not fulfilled

* * *

target: human κ opioid receptors (Homo sapiens, UniProt P41145); assay: Opioid receptor function test (Lance Ultra cAMP kit, agonist activity); settings: CHO cells expressing human κ opioid receptors, 10 μM forskolin, 30 minutes
Sequence (P41145 whole entry): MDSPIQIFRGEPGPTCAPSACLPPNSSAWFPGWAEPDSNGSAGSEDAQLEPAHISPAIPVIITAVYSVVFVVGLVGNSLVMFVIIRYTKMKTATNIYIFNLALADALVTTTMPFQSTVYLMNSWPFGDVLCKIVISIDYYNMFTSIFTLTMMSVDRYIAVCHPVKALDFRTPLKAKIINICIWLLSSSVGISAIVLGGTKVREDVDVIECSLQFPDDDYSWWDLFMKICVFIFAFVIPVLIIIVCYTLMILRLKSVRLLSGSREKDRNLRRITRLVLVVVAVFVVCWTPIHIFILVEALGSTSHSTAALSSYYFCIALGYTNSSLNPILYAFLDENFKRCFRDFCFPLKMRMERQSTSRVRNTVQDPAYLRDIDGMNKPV
Threshold 0.3 nM. EC50 below it: MET. EC50 at it or above: NOT MET.

Problem: For the molecule O=C(CN1CCC(F)(F)C1)N1CC[C@]23CCN(CC4CC4)[C@H](Cc4ccc(O)cc42)[C@]3(O)CC1 [Example 181] , is EC50 under 0.3 nM?
NOT MET

Problem: For the molecule CCCN1CC[C@]23CCN(CCc4ccccn4)CC[C@@]2(O)[C@H]1Cc1ccc(O)cc13 [Example 159] , is EC50 under 0.3 nM?
NOT MET

Problem: For the molecule O=C(Cn1cc(Br)cn1)N1CC[C@]23CCN(CC4CC4)[C@H](Cc4ccc(O)cc42)[C@]3(O)CC1 [Example 60] , is EC50 under 0.3 nM?
MET

Problem: For the molecule O=C(CCc1ccccn1)N1CC[C@]23CCN(CC4CC4)[C@H](Cc4ccc(O)cc42)[C@]3(O)CC1 [Example 190] , is EC50 under 0.3 nM?
NOT MET

Problem: For the molecule Cc1ccnn1CCN1CC[C@]23CCN(CC4CC4)[C@H](Cc4ccc(O)cc42)[C@]3(O)CC1 [Example 52] , is EC50 under 0.3 nM?
MET

Problem: For the molecule CC1(C)C[C@@]2(O)[C@H]3Cc4ccc(O)cc4[C@@]2(CCN3CC2CC2)CCN1C(=O)Cc1ccccn1 [Example 343] , is EC50 under 0.3 nM?
NOT MET

Problem: For the molecule Cc1cnn(C[C@H](CO)N2CC[C@]34CCN(CC5CC5)[C@H](Cc5ccc(O)cc53)[C@]4(O)CC2)c1 [Example 232] , is EC50 under 0.3 nM?
MET
